# Test: label from the status in PepcDB records
Test readout: protein production

ordered_residues=MTGRDLMLITGISPIILRFLFGGTAVVASRLVARSFGGRLGGVFAAFPAVYLAAVAGLSMEYEGSELLSVSEQLSRGALVGMSADICCALAASYLILKYGWKTGLSLSLLFWAVLAPVIYFTWF reading=failed
ordered_residues=MTIKRIFCDMDGTLLNSEGQVSKSNATLIREAAIPVTLVSARAPMEMKDAVDALQLGGVQVAFNGGLIYRIGDNNQVLPIHTQIIKKSTVKQLLRGIRFHFPQVSLSYYDLNNWYCDKIDEGIRYEHSLTQQCPTFIHNEDQFLEGHTNTFKIMMITFDEANMLELEKYLQSLELPEITIQRSGKAYLEITHLLAKKSKGIAYILQKEQLAREETAAFGDGHNDLPMLEMVGYPIVMDNAFDDIKAIAYQLTKSNDEDGVGYGIQKFLK reading=failed
ordered_residues=MDSIKGVFTGNKDTPLEESNLPVEAFTLLRFADELKNARRLGKFKQYIVGRSSEATFADAFEKQEAVIRYLGALDATGENLQASQKQDAAKHCKCTITDVENTLSKFTWARQAHKKMTELKEGGKPLPKNMGEVFFSLCILICFFSSISSYV reading=failed

* * *

# Test: label from the status in PepcDB records
Test readout: protein production

ordered_residues=MRDPVSRLPNREQFQSDLYDLADENPGERRVLVLVDAVDMTVAHELTLAMGLAPFETIVRFLAQQLLAYLGRHVRVYHVSVKRFGFLLPAAPGIERFLESLVRRLRRQPPGLELPMIPGVCAGTVEFSTDRDAVPDVLRKAMFALELATLNRSTWAPYDVVRLEHHHHHH test_readout="protein production" reading=failed
ordered_residues=MLTTQITQTYHLTTPIISAGMAFVATPKLAAAVSNAGGMGTFSAFMSPPEELRALIRQTRSLSDRPFGIDFITAAANDDHIAICMAERVPVVIFFWSFPPLDWVTQLQNAGVKVWMQVGSLAEATQAKAQGFDAIIAQGQEGGGHNRSEASIFSLLPAICREVAPIPVIAAGGIIDGRGLVAALALGAEAVWCGTRFLASEEAYAHPEYKARVVTATVGDTTRTTLFGPEMPGQLMRVLRNLAVNQWGDRVADATKHGPTQPAIGSTILGGQALPMPKFSAILPTPDTSGDFEEMCLTAGESSGNITAIKSARDILWEMENEALDLLTYRLQAITKEQNLMAAG test_readout="protein production" reading=failed
ordered_residues=MTKIIPVASGKGGVGKTSFVANVGYKLSSLGKTVILVDLDLGGSNLHTCLGVKNKGVGIGSFINKKSKSFSDLVCKTSYDKLYLIPGDALYTGTANLPFSIKKKIIESIQKDLIADFIFLDLGSGTSYNTIDFYLASYSGVIVTIPETPSILNAYSFLKNALYRLLYLGFPQKSPERDYIGNFFKDKIEGTNLGFKDLVVGIELISLSSSLKVKRMMNNFYPRVVLNRIETSEEIAMCENLINVVKNNINIPIEFIGFVPFAKSFREAINNRVPFIDFEKNSKLNKYFEFIAGNLIKSP test_readout="protein production" reading=failed

* * *

# Test: label from the status in PepcDB records
Test readout: protein production

For orientation, consider the following solved cases.
ordered_residues=MLPASNGSVSLPQPKEWENGCRLGFIHMAAKGIVQVISAQVLSGTTLTLGWLGYVPLLIWAVSRVRWVELFTDRRRQHLLFGTVFCLFALWLVRRDFDTGVSYHFIGMTAVTLLLDWPLAVLGGFMAQLGLLALGRQDLAALGVNGLMLIGLPVLITEVCAIVVERAQPRNLFVYIFCSGFFPAALTVLVCVPAALGVLWLDGRFALPEWLSDFVGYLWLMMFPEAFINGMVISALVVFCPEWLETFNRTRYLQAPWKEDER reading=failed
ordered_residues=MPKKGSDPVWCVVMFDLPVKTKTQRKQATAFRQNLLDLGFCMAQLSVYVQYLPLAAKLSNLVKLIKEKLPPGGDVRILSVSDIQWSKMIRFSSSAEVSGEEKPDQLAIFLEHHHHHH reading="not failed"
ordered_residues=SSAQFDHVTVIKKSNVYFGGLCISHTVQFEDGTKKTLGVILPTEQPLTFETHVPERMEIISGECRVKIADSTESELFRAGQSFYVPGNSLFKIETDEVLDYVCHLE reading=failed
ordered_residues=MIALAASSLGNTPIASFNRHFRFRLHPRNPLIQAAVSPSSSSSSPTASSGFDLSSLESAINKKDSNGVKEALDKLSEEGWAKKWSSQPYLSRRTTSLRELTTLGIKNAETLAIPSVRNDAAFLFTVVGSTGFIAVLAGQLPGDWGFFVPYLVGSISLVVLAVGSVSPGLLQAAISGFSTFFPDYQERIAAHEAAHFLGTLEKFKSFDSKVAYLIGLPILGYSLDIGKEHVNLIDERLAKLIYSGKLDSKELDRLAAVAMAGLAAEGLKYDKVIGQSADLFSLQRFINRSQPKISNEQQQNLTRWAVLYSASLLKNNKTIHEALMAAMSKNASVLECIQTIETAS reading=failed
ordered_residues=MGIKHLNLTVADVVAAREFLEKYFGLTCSGTRGNAFAVMRDNDGFILTLMKGKEVQYPKTFHVGFPQESEEQVDKINQRLKEDGFLVEPPKHAHAYTFYVEAPGGFTIEVMC reading="not failed"

Looking up MEEKRRRARVQGAWAAPVKSQAIAQPATTAKSHLHQKPGQTWKNKEHHLSDREFVFKEPQQVVRRAPEPRVIDREGVYEISLSPTGVSRVCLYPGFVDVKEADWILEQLCQDVPWKQRTGIREDITYQQPRLTAWYGELPYTYSRITMEPNPHWHPVLRTLKNRIEENTGHTFNSLLCNLYRNEKDSVDWHSDDEPSLGRCPIIASLSFGATRTFEMRKKPPPEENGEYTYVERVKIPLDHGTLLIMEGATQADWQHRVPKEYHSREPRVNLTFRTVYPDPRGAPW , I see its protein production listed as failed

# protein production (sequence: MDFHIRKATNSDAEAIQHVATTSWHHTYQDLIPSDVQDDFLKRFYNVETLHNRISATPFAVLEQADKVIGFANFIELEKGKSELAAFYLLPEVTQRGLGTELLEVGMTLFHVPLPMFVNVEKGNETAIHFYKAKGFVQVEEFTEDFYGYPLETIRFNLNH ) is not failed

Quick note, protein production for MFYFMTLSFIIMPALGCFLIGLVLAKSDRWTFSWILSLIGLVAFISSFWHIERADLWFMLSYSFGPFLMGFGFTWDLSNKRRMQLLLLGLFFLIFFMILYYLIVRILNTAVV landed at failed
